Biological target: T1, Aβ (1-42) peptide (human)
T1 construct: also called Aβ1-42 fibers; Aβ4
Experiment: SPR, immobilized fibers;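 further: biacore SPR using in vitro grown Aβ1-40 or Aβ1-42 fibrils immobilized on the chip with Fab analytes, KD from koff/kon fits or equilibrium isotherms based on total Fab concentration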
metricName: pKd
To interpret pKd, take it as minus log10 of a concentration measured in moles per litre.

Take a look at these entries with their results.
{"binder": "MS-Roche #7.12.L3 Fab (Fab, V domains shown) VH: QVQLVESGGGLVQPGGSLRLSCAASGFTFSSYGMSWVRQAPGKGLEWVSNISGSGSSTYYADSVKGRFTISRDNSKNTLYLQMNSLRAEDTAVYYCARGKGNTHKPYGYVRYFDVWGQGTLVTVSS VL: DIVLTQSPATLSLSPGERATLSCRASQFVRRGFLAWYQQKPGQAPRLLISGSSNRATGVPARFSGSGSGTDFTLTISSLEPEDFAVYYCLQLYNIPNTFGQGTKVEIKR", "pKd": 9.05}
{"binder": "MS-Roche #7.2.H1 Fab (Fab, V domains shown) VH: QVQLVESGGGLVQPGGSLRLSCAASGFTFSSYAMSWVRQAPGKGLEWVSAINANGLKKYYADSVKGRFTISRDNSKNTLYLQMNSLRAEDTAVYYCARGKGNTHKPYGYVRYFDVWGQGTLVTVSS VL: DIVLTQSPATLSLSPGERATLSCRASQSVSSSYLAWYQQKPGQAPRLLIYGASSRATGVPARFSGSGSGTDFTLTISSLEPEDFATYYCQQIYSFPHTFGQGTKVEIKR", "pKd": 7.99}
{"binder": "MS-Roche #7.9.H8 Fab (Fab, V domains shown, assembled) VH: QVQLVESGGGLVQPGGSLRLSCAASGFTFSSYAMSWVRQAPGKGLEWVSAINASGSKIYYADSVKGRFTISRDNSKNTLYLQMNSLRAEDTAVYYCARGKGNTHKPYGYVRYFDVWGQGTLVTVSS VL: DIVLTQSPATLSLSPGERATLSCRASQSVSSSYLAWYQQKPGQAPRLLIYGASSRATGVPARFSGSGSGTDFTLTISSLEPEDFATYYCLQIYNMPITFGQGTKVEIKR", "pKd": 9.15}
{"binder": "MS-Roche #7.2.H8 Fab (Fab, V domains shown) VH: QVQLVESGGGLVQPGGSLRLSCAASGFTFSSYAMSWVRQAPGKGLEWVSAINASGHKTYYADSVKGRFTISRDNSKNTLYLQMNSLRAEDTAVYYCARGKGNTHKPYGYVRYFDVWGQGTLVTVSS VL: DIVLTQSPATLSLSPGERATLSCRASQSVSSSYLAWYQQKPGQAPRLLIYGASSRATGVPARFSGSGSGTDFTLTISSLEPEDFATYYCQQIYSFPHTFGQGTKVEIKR", "pKd": 8.68}

Data request: Query: pKd; subject: MS-Roche #7.2.H5 Fab (Fab, V domains shown) VH: QVQLVESGGGLVQPGGSLRLSCAASGFTFSSYAMSWVRQAPGKGLEWVSAINATGRSKYYADSVKGRFTISRDNSKNTLYLQMNSLRAEDTAVYYCARGKGNTHKPYGYVRYFDVWGQGTLVTVSS VL: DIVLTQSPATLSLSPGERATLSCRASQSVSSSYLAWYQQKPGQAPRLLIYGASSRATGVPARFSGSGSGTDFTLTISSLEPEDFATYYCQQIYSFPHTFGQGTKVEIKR
Data returned: 8.00
